Reference source for all entries: patent US10131647B2

test_description: Pharmacokinetics after intravenous bolus and oral gavage
Type: in vivo, Swiss albino mice
recorded_conditions: mouse, in vivo; IV (5 mg/kg), Swiss albino mice, mean
recorded_metric: AUC(0-t) (µg·h/mL)
Write the value in µg·h/mL as a bare number.

Tell me its AUC(0-t) given Fc1ccc(C2=C(CN3CCCC3)COc3ccc(OCC4CC4)cc32)cc1 [AX-104] as the entry.
0.724

----------
test_description: Pharmacokinetics after intravenous bolus and oral gavage
Type: in vivo, Swiss albino mice
recorded_conditions: mouse, in vivo; PO (50 mg/kg), Swiss albino mice, mean
recorded_metric: AUC(0-t)
In your response, the unit should come after the numeric value.

Tell me its AUC(0-t) given "Fc1ccc(C2=C(CN3CCCC3)COc3ccc(OCC4CC4)cc32)cc1" as the entry.
1760 ng·h/mL

----------
test_description: Pharmacokinetics after intravenous bolus and oral gavage
Format: in vivo, Swiss albino mice
recorded_conditions: mouse, in vivo; PO (50 mg/kg), Swiss albino mice, mean; read-out: Cmax
recorded_metric: Cmax (ng/mL)
Write the value in ng/mL as a bare number.

Tell me its Cmax given Fc1ccc(C2=C(CN3CCCC3)COc3ccc(OCC4CC4)cc32)cc1 [AX-104] as the entry.
930

----------
test_description: Pharmacokinetics after intravenous bolus and oral gavage
Type: in vivo, Swiss albino mice
recorded_conditions: mouse, in vivo; PO (50 mg/kg), Swiss albino mice, mean; read-out: Tmax
recorded_metric: Tmax (min)
Write the value in min as a bare number.

Tell me its Tmax given "Fc1ccc(C2=C(CN3CCCC3)COc3ccc(OCC4CC4)cc32)cc1" as the entry.
15
